Origin of values: PubChem BioAssay

z-score overview
assay: changes in parasitized red cell lysis, either direction – P. falciparum Indochina, OD700, 3 h, PSAC antagonist project, primary screen (AID 1156); settings: P. falciparum-infected erythrocytes, osmotic lysis, higher = more signal, called active from +8 up or from −8 down

| MOLECULE | z-score |
| --- | --- |
| Cc1ccc(N2C(=O)c3ccccc3[C@](C)(C(=O)NCCN3CCOCC3)[C@@H]2c2ccc(CO)cc2)nc1 | 2.69 |
| O=C(NCC(O)CO)[C@@]1(Cc2ccccc2)N=C(c2ccc(OCCCO)cc2)O[C@H]1c1ccccc1 (stereo not given in full) | 1.88 |
| [N-]=[N+]=NCc1ccccc1C[C@]1(C(=O)NCC(O)CO)COC(c2ccc(OCCCO)cc2)=N1 (stereo not given in full) | 3.96 |
| O=C1OCC=C[C@H]2OC34C=CCN(Cc5ccccc5)C(=O)[C@H]3N(CCCO)C(=O)[C@@H]4[C@@H]12 (stereo not given in full) | 1.01 |
| NC(=O)NCC#Cc1ccc2c(c1)[C@]1(C(=O)N2)[C@H](c2ccccc2OCCO)N2[C@H](c3ccccc3)[C@H](c3ccccc3)OC(=O)[C@H]2[C@@H]1C(=O)N1CCCCCCC1 | 1.19 |
| C[N+](C)(C)CCCC[C@@H]1NC(=O)[C@@H]2C[C@H](C(=O)NCCCCCCNC(=O)CS)[C@H](c3cccc(OCCO)c3)N2C1=O | -0.293 |
| CCCNC(=O)[C@@]1(c2ccc([N+](=O)[O-])cc2)CC(=O)N(CC23CC4CC(CC(C4)C2)C3)[C@@H]1c1ccc(CO)cc1I | 1.82 |
| COC(=O)[C@@]1(Cc2ccc(OC)cc2)[C@H]2c3cc(C(=O)N4CCCC4)n(C[C@H](O)CO)c3C[C@H]2CN1C(=O)c1ccccc1 | 0.425 |
| CC(C)N1C(=O)c2ccccc2[C@](C)(C(=O)NC2CC2)[C@@H]1c1ccc(CO)cc1 | -0.173 |
| COC(=O)c1nc2oc1CC[C@@H](CO)NC(=O)N(C)Cc1cn(nn1)C[C@H](Cc1ccccc1)NC2=O | 0.864 |
| CN1C(=O)C2C=CC(C(O)c3ccc(Br)cc3)N(Nc3ccccc3)C2C1=O (stereo not given) | 0.302 |
| Cc1ccc(C(C)CC(O)C2C=CC3C(=O)NC(=O)C3N2Nc2ccccn2)o1 (stereo not given) | -0.284 |
| C=CCC(OC(C)=O)[C@@H]1[C@@H](N(Cc2ccc(-c3cccc(C(F)(F)F)c3)o2)C(=O)Cc2ccc(OC)cc2)c2cc(OCCCO)ccc2N1C(=O)Cc1ccc(OC)cc1 (stereo not given in full) | 0.777 |
| COCCOC(=O)N1C(=O)[C@@]2(c3cc(C#Cc4ccc(OC)cc4)ccc31)[C@H](c1ccc(O)cc1)N1[C@H](c3ccccc3)[C@H](c3ccccc3)OC(=O)[C@H]1[C@@H]2C(=O)N1CCN(c2ncccn2)CC1 | -0.969 |
| O=C(CS)NCCCCCCNC(=O)[C@H]1C[C@H]2C(=O)N3CCC[C@H]3C(=O)N2[C@H]1c1ccc(O)cc1 | -1.85 |

* * *

assay: probe aLefty1 binding on compound microarray – biochemical, small-molecule microarray, 635/667 nm fluorescence, primary screen (AID 1153); settings: higher = more signal;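 note: score merges spot fluorescence with signal-to-noise ratio from the scanned slide images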
Short version: composite z-score at least 0.2 is condition met, less is condition not met.

| COMPOUND | LABEL |
| --- | --- |
| O=C1OCCC/C=C\[C@H]2OC34C=CCN(CCN5CCOCC5)C(=O)[C@H]3N(CCO)C(=O)[C@@H]4C12 (stereo not given in full) | condition not met |
| O=C1OCC=C[C@H]2OC34C=CCN(CCN5CCOCC5)C(=O)[C@H]3N(CCCCCCO)C(=O)[C@@H]4[C@@H]12 (stereo not given in full) | condition not met |
| O=C(CS)NCCCCCCNC(=O)[C@H]1C[C@H]2C(=O)N3CCC[C@H]3C(=O)N2[C@H]1c1ccc(O)cc1 | condition not met |
| [N-]=[N+]=Nc1ccccc1[C@H]1OC(c2ccc(OCCCO)cc2)=N[C@@]1(CCS(=O)(=O)c1ccccc1)C(=O)N1CCOCC1 | condition met |
| CCOC(=O)N1C(c2ccc(OCCCO)cc2)=NC(C(=O)OC)N1C(=O)OCC (stereo not given) | condition met |
| CN(C)CCCC[C@@H]1NC(=O)[C@@H]2C[C@H](C(=O)NCCCCCN)[C@H](c3ccc(O)cc3)N2C1=O | condition not met |
| CCOC(=O)C1=CC[C@@H](c2ccccc2)N(S(=O)(=O)c2ccc(C)cc2)[C@H]1c1ccc(C#N)cc1 | condition not met |
| COc1ccc(C#Cc2ccc3c(c2)[C@]2(C(=O)N3)[C@H](c3ccc(OCCO)cc3)N3[C@H](c4ccccc4)[C@H](c4ccccc4)OC(=O)[C@H]3[C@@H]2C(=O)Nc2nc3ccccc3s2)cc1 | condition met |
| C=C(CCCC)C(=O)CC[C@@H](OC(=O)c1ccccc1-c1ccccc1C(=O)O)c1ccc(CO)o1 | condition met |
| COC(=O)[C@@]1(Cc2ccc(F)cc2)[C@H]2c3cc(C(=O)N(C)C)n(Cc4ccccn4)c3C[C@H]2CN1C(=O)c1ccccc1 | condition met |
| CC(C)N1C(=O)c2ccccc2[C@](C)(C(=O)NC2CC2)[C@@H]1c1ccc(CO)cc1 | condition not met |
| CC(C)C(=C=CC[C@H](O)c1ccccc1OCCO)CCO | condition not met |
| C/C=C/[C@H](CCn1cc([C@H](O)c2ccccc2)nn1)[Si](C)(C)c1ccc(OC)cc1 | condition not met |
| C=C(/C(=C/C[C@@H](OC(C)=O)c1ccc(CO)o1)c1cnc2ccccc2c1)C(C)C | condition not met |
| COCCCNC(=O)[C@@]1(Cc2ccccc2I)c2ccccc2C(=O)N(Cc2ccccc2)[C@H]1c1ccc(CO)cc1 | condition met |
| O=C1O[C@H](c2ccccc2)[C@H](c2ccccc2)N2[C@H]1[C@@H](C(=O)NC[C@H](O)c1ccccc1)[C@]1(C(=O)Nc3ccc(C#CC4=CCCCC4)cc31)[C@H]2c1ccc(O)cc1 | condition not met |
| O=C1C2C=CC(C(O)c3ccc(B(O)O)cc3)N(Nc3ccc([N+](=O)[O-])cc3)C2C(=O)N1c1ccccc1 (stereo not given) | condition met |
| CC(c1ccccc1)C(O)C1C=CC2C(=O)N(Cc3ccccc3)C(=O)C2N1n1cnnc1 (stereo not given) | condition not met |
| COCCOC(=O)N1C(=O)[C@@]2(c3cc(C#Cc4ccc(OC)cc4)ccc31)[C@H](C(N)=O)[C@H]1C(=O)O[C@H](c3ccccc3)[C@H](c3ccccc3)N1[C@@H]2c1ccc(O)cc1 | condition met |
| COCCOC(=O)N1C(=O)[C@@]2(c3cc(C#CCCO)ccc31)[C@H](C(=O)NC[C@H](O)c1ccccc1)[C@H]1C(=O)O[C@H](c3ccccc3)[C@H](c3ccccc3)N1[C@@H]2c1ccc(OCCO)cc1 | condition not met |

* * *

# z-score listing for each entry below
experiment: calcein-AM signal in unstimulated myeloma cells – cell-based, calcein-AM fluorescence, 48 h, PK04 Diversity Set, profiling panel (AID 1166); details: RPMI8226 myeloma viability, higher = more signal;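 note: cells grown under basal conditions without added stimulus; test concentration not given here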

| COMPOUND | z-score |
| --- | --- |
| NC(=O)NCC#Cc1ccc2c(c1)[C@]1(C(=O)N2)[C@H](C(=O)NC[C@H](O)c2ccccc2)[C@H]2C(=O)O[C@H](c3ccccc3)[C@H](c3ccccc3)N2[C@@H]1c1ccccc1OCCO | -0.636 |
| C=C(COC)C(=O)CC[C@H](OC(=O)c1cccnc1)c1ccccc1OCCO | -3.76 |
| C[n+]1ccc2ccc(O)cc2c1 | -1.91 |
| CN1C(=O)C2C=CC(C(O)c3ccc(Br)cc3)N(Nc3ccccc3)C2C1=O (centres undefined) | -0.119 |

* * *

Measured composite z-score accompanies every entry in the list below.
target: Calmodulin-1 (Homo sapiens); test: small molecules binding calmodulin-1 with EGTA – biochemical, small-molecule microarray, Cy5-labelled CALM1, profiling panel (AID 1111); conditions: Cy5-CALM1 binding fluorescence, higher = more signal;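 note: labelled calmodulin applied in Tris saline Tween buffer holding calcium plus EGTA and DTT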

| COMPOUND | composite z-score |
| --- | --- |
| CC(C)(C)OC(=O)CC[C@@]1(C(N)=O)N=C(c2ccc(OCCCO)cc2)O[C@@H]1c1ccccc1N=[N+]=[N-] | 1.03 |
| C#C[C@H]1Oc2ccccc2S(=O)(=O)N2CCC[C@@H]12 | -0.982 |
| C=CCNC(=O)[C@H]1[C@@H]2C(=O)O[C@@H](c3ccccc3)[C@@H](c3ccccc3)N2[C@@H](c2ccc(OCCO)cc2)[C@]12C(=O)N(C(=O)OCCOC)c1ccc(C#CC3(O)CCCCCC3)cc12 | 0.494 |
| COCC1C2CC[C@H]3C(OCc4ccc(F)cc4C(F)(F)F)OC[C@]4(C)[C@H]3C2=C(CN4C(=O)OC(C)(C)C)[C@H](C)C1COC (stereo not given in full) | 2.61 |
| COC(=O)[C@@]1(Cc2ccc(OC)cc2)[C@H]2c3cc(C(=O)N4CCCC4)n(C[C@H](O)CO)c3C[C@H]2CN1C(=O)c1ccccc1 | 1.14 |
